biological target: Endothelin receptor type B (Rattus norvegicus); assay: Inhibition of binding to Endothelin B receptor of rat cerebellar membranes.
Sequence (P21451 whole entry): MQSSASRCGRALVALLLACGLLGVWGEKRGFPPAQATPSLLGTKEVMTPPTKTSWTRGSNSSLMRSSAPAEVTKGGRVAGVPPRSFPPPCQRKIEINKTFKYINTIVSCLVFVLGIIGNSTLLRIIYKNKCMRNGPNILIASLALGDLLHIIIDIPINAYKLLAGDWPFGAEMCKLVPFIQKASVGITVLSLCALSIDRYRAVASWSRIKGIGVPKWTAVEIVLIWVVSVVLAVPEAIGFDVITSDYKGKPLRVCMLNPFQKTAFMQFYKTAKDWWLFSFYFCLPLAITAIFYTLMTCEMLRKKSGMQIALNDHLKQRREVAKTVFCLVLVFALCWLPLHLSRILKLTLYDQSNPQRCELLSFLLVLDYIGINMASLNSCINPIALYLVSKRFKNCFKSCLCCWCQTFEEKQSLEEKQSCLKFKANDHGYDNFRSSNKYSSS
Square brackets hold non-standard residues; d marks the D form. Peptide text beside a SMILES is read from it. Dip = N[C@H](C(=O)O)C(c1ccccc1)c1ccccc1; NMeI = CC[C@H](C)[C@H](NC)C(=O)O; NMeD = CN[C@@H](CC(=O)O)C(=O)O
parameter: IC50 (nM)
Give bare numbers, in nM.

// below: answered compounds
Value of IC50 reported for the compound CC[C@H](C)[C@H](NC(=O)[C@@H](NC(=O)[C@H](CC(=O)O)N(C)C(=O)[C@H](CC(C)C)NC(=O)[C@@H](NC(C)=O)C(c1ccccc1)c1ccccc1)[C@@H](C)CC)C(=O)N[C@@H](Cc1c[nH]c2ccccc12)C(=O)O (Ac-[Dip]L[NMeD]IIW-OH) is 1500

# compound CC[C@H](C)[C@H](NC(=O)[C@H](CC(=O)O)NC(=O)[C@H](CC(C)C)N(C)C(=O)[C@H](NC(C)=O)C(c1ccccc1)c1ccccc1)C(=O)N[C@H](C(=O)N[C@@H](Cc1c[nH]c2ccccc12)C(=O)O)[C@@H](C)CC ; its IC50 = 600

# context switch: different compound, same IC50
// field: IC50; key: CC[C@H](C)[C@H](NC(=O)[C@H](CC(=O)O)NC(=O)[C@H](CC(C)C)NC(=O)[C@@H](NC(C)=O)C(c1ccccc1)c1ccccc1)C(=O)N(C)[C@H](C(=O)N[C@@H](Cc1c[nH]c2ccccc12)C(=O)O)[C@@H](C)CC (Ac-[Dip]LDI[NMeI]W-OH) ; value = 80

###

test: Stability in rat intestinal perfusate; format: ADME
Square brackets hold non-standard residues; d marks the D form. Peptide text beside a SMILES is read from it. dGly(5-dibenzosuberyl) = N[C@@H](C(=O)O)C1c2ccccc2CCc2ccccc21; Dip = N[C@H](C(=O)O)C(c1ccccc1)c1ccccc1; NMeI = CC[C@H](C)[C@H](NC)C(=O)O
parameter: half-life (h)
Numbers only, in h.

Examples with answers:
Documented half-life of CC[C@H](C)[C@H](NC(=O)[C@H](CC(=O)O)NC(=O)[C@H](CC(C)C)NC(=O)[C@H](NC(C)=O)C1c2ccccc2CCc2ccccc21)C(=O)N(C)[C@H](C(=O)N[C@@H](Cc1c[nH]c2ccccc12)C(=O)O)[C@@H](C)CC : 8.97

Form field half-life, entry CC[C@H](C)[C@H](NC(=O)[C@H](CC(=O)O)NC(=O)[C@H](CC(C)C)NC(=O)[C@@H](NC(C)=O)C(c1ccccc1)c1ccccc1)C(=O)N[C@H](C(=O)N[C@@H](Cc1c[nH]c2ccccc12)C(=O)O)[C@@H](C)CC (Ac-[Dip]LDIIW-OH) : 0.302

For this molecule ( CC[C@H](C)[C@H](NC(=O)[C@H](CC(=O)O)NC(=O)[C@H](CC(C)C)NC(=O)[C@@H](NC(C)=O)C(c1ccccc1)c1ccccc1)C(=O)N(C)[C@H](C(=O)N[C@@H](Cc1c[nH]c2ccccc12)C(=O)O)[C@@H](C)CC (Ac-[Dip]LDI[NMeI]W-OH) ), measured half-life is 14.6

Next molecule, half-life to be filled in.
Record CC[C@H](C)[C@H](NC(=O)[C@H](CC(=O)O)NC(=O)[C@H](CC(C)C)NC(=O)[C@H](NC(C)=O)C1c2ccccc2CCc2ccccc21)C(=O)N[C@H](C(=O)N[C@@H](Cc1c[nH]c2ccccc12)C(=O)O)[C@@H](C)CC (Ac-[dGly(5-dibenzosuberyl)]LDIIW-OH) . Reported half-life: 0.177

All figures here come from ChEMBL document CHEMBL1130387.
